- assay_notes: Metabolic stability in pooled mouse hepatocytes assessed as half life
- Assay type: ADME, cell-based, Hepatocyte
Assign half-life to each entry below.

Look over these answered cases.
1. CC(=O)OC1CCC(CN2CCN(c3cc(=O)c4cc(C(F)(F)F)cc([N+](=O)[O-])c4s3)CC2)CC1 (stereo unspecified) ... < 0.15 h
2. O=C(OC1CCC(CN2CCN(c3cc(=O)c4cc(C(F)(F)F)cc([N+](=O)[O-])c4s3)CC2)CC1)c1ccco1 (stereo unspecified) ... < 0.075 h
3. CC(=O)NC1CCC(CN2CCN(c3cc(=O)c4cc(C(F)(F)F)cc([N+](=O)[O-])c4s3)CC2)CC1 (stereo unspecified) ... > 1.55 h

Working through the 3 compounds below one at a time, give half-life for each.
1. O=c1cc(N2CCN(CC3CCC(NS(=O)(=O)c4ccccc4)CC3)CC2)sc2c([N+](=O)[O-])cc(C(F)(F)F)cc12 (stereo unspecified)
2. CS(=O)(=O)NC1CCC(CN2CCN(c3cc(=O)c4cc(C(F)(F)F)cc([N+](=O)[O-])c4s3)CC2)CC1 (stereo unspecified)
3. O=C(NC1CCC(CN2CCN(c3cc(=O)c4cc(C(F)(F)F)cc([N+](=O)[O-])c4s3)CC2)CC1)c1ccccc1 (stereo unspecified)

Return:
["> 1.55 h", "> 1.55 h", "> 1.55 h"]

* * *

- assay_notes: Metabolic stability in pooled mouse hepatocytes assessed as parent compound remaining after 30 mins
- Format: ADME, cell-based, Hepatocyte
- reported_conditions: read-out: Stabilty
Assign remaining at 0.5 h to each entry below.
Answers are plain numbers, in %.

1. O=C(OC1CCC(CN2CCN(c3cc(=O)c4cc(C(F)(F)F)cc([N+](=O)[O-])c4s3)CC2)CC1)c1ccc(F)cc1 (stereo unspecified) ... 1.5
2. Nc1cc(C(F)(F)F)cc2c(=O)cc(N3CCN(CC4CCCCC4)CC3)sc12 ... 69.4
3. O=c1cc(N2CCN(CC3CCCCC3)CC2)sc2c(NO)cc(C(F)(F)F)cc12 ... 47.8

Working through the 8 compounds below one at a time, give remaining at 0.5 h for each.
1. O=C(OC1CCC(CN2CCN(c3cc(=O)c4cc(C(F)(F)F)cc([N+](=O)[O-])c4s3)CC2)CC1)c1ccccc1 (stereo unspecified)
2. O=C(OC1CCC(CN2CCN(c3cc(=O)c4cc(C(F)(F)F)cc([N+](=O)[O-])c4s3)CC2)CC1)C1CCCCC1 (stereo unspecified)
3. O=C(OC1CCC(CN2CCN(c3cc(=O)c4cc(C(F)(F)F)cc([N+](=O)[O-])c4s3)CC2)CC1)c1ccncc1 (stereo unspecified)
4. O=C(OC1CCC(CN2CCN(c3cc(=O)c4cc(C(F)(F)F)cc([N+](=O)[O-])c4s3)CC2)CC1)c1ccc(C(F)(F)F)cc1 (stereo unspecified)
5. O=C(NC1CCC(CN2CCN(c3cc(=O)c4cc(C(F)(F)F)cc([N+](=O)[O-])c4s3)CC2)CC1)c1ccccc1 (stereo unspecified)
6. O=C(OC1CCC(CN2CCN(c3cc(=O)c4cc(C(F)(F)F)cc([N+](=O)[O-])c4s3)CC2)CC1)c1ccco1 (stereo unspecified)
7. COc1ccc(C(=O)OC2CCC(CN3CCN(c4cc(=O)c5cc(C(F)(F)F)cc([N+](=O)[O-])c5s4)CC3)CC2)cc1 (stereo unspecified)
8. CS(=O)(=O)NC1CCC(CN2CCN(c3cc(=O)c4cc(C(F)(F)F)cc([N+](=O)[O-])c4s3)CC2)CC1 (stereo unspecified)

Return:
1. 68.1
2. 1.2
3. 1.4
4. 28.8
5. 90.6
6. 0.6
7. 31
8. 111
